- procedure-text: NCI Yeast Anticancer Drug Screen. Data for the mlh1 rad18 strain (AID 175)
- test-context: S. cerevisiae mlh1 rad18 strain growth inhibition; at 5.0 µM (retest, dose inferred, filed as 0.5)
- Method: Growth inhibition of yeast strains with defined genetic alterations is measured as a screen for potential anti-cancer activity. Selected strains with alterations in DNA damage repair or cell cycle control were exposed to compounds and growth inhibition was measured relative to vehicle treated controls. The strain used in this assay is mlh1 rad18
Compounds without any hit were thinned out: in the full panel of roughly 79,000, 15% have a hit. Calls of active or inactive are those of the source. No stated cut-off is given here; in the data, active means growth inhibition above about 70%; inactive means the rest.
Outcomes: active, inactive

compound="NCCCC(=O)NC(Cc1cnc[nH]1)C(=O)O (stereo not drawn)" qualitative_label=inactive
compound=CCOC(=O)/C(C#N)=C\c1ccc(N(CCC(=O)O)CCC(=O)O)c(I)c1 qualitative_label=inactive
compound=O=c1c2c3c(sc2nc2n1N=C(c1ccc(Br)cc1)CS2)CCCC3 qualitative_label=inactive
compound="COc1cccc2c1OC(c1ccc(Cl)cc1)C([N+](=O)[O-])=C2 (stereo not drawn)" qualitative_label=active
compound=NCCNCCNCc1c2ccccc2c(CNCCNCCN)c2ccccc12 qualitative_label=inactive
compound="CC1=C(C#N)C(=O)OC1(C)C(CC(=O)c1ccccc1)c1ccccc1 (stereo not drawn)" qualitative_label=inactive
compound=Cc1ccc([Si](O)(c2ccc(C)cc2)c2ccc(C)cc2)cc1 qualitative_label=active
compound=N=C1C=CC(=C(c2ccc(N)cc2)c2ccc(N)cc2)C=C1 qualitative_label=inactive

====

The reader will find reported growth inhibition values listed item by item below.
- procedure-text: NCI Yeast Anticancer Drug Screen. Data for the cln2 rad14 strain (AID 165);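 further: 0% = growth equal to vehicle treated cultures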
- test-context: S. cerevisiae cln2 rad14 strain, at 50.0 µM (retest, dose inferred, filed as 5.0), stronger effect = higher value
About 79,000 compounds went through this panel and 15% of them were active in at least one assay; those are over-represented in the sample as a whole.
observed-property: growth inhibition (%)

compound="O=C1OC(=O)C2C=CC=CC12 (stereo not drawn)" measured_value=-6
compound=CCOC(=O)N1C=CC(=C2C(=C3C=CN(C(=O)OCC)C=C3)C(=C3C=CN(C(=O)OCC)C=C3)C2=C2C=CN(C(=O)OCC)C=C2)C=C1 measured_value=52
compound=CCCN(Cc1ccccc1)S(=O)(=O)c1ccc(C)cc1 measured_value=93
compound=CC(=O)OCc1cc(=O)n(C)c2c3c4c(cc12)c(C)cc(=O)n4CO3 measured_value=97
compound="C=C1C(=O)O[C@@H]2C[C@@]3(C)CCC[C@H](C)C3=C[C@H]12 (tested in a mixture with another compound)" measured_value=91
compound=O=[N+]([O-])c1ccccc1OS(=O)(=O)c1ccccc1 measured_value=36
compound=CNS(=O)(=O)c1ccccc1C=C(c1ccccc1)c1ccccc1 measured_value=89
compound=COC(=O)c1ccc(OCCC(=O)CCl)cc1 measured_value=31
compound=C/C(=N\NC(=S)N1CCN(C2CCCCCC2)CC1)c1ccccn1 measured_value=99
compound=COc1ccc(CN2CCCN(Cc3ccc(OC)cc3OC)C2c2cc(Cl)cc(Cl)c2O)c(OC)c1 measured_value=35
compound=O=C(C(/C=N/C(=S)NCc1ccccc1)=C(/O)c1ccccc1)c1ccccc1 measured_value=87
compound="COc1ccc(C2CN(C(=O)c3ccccc3)N=C(c3ccccc3)O2)cc1 (stereo not drawn)" measured_value=-8
compound=COC(=O)c1ccc(Cl)c(Cl)c1 measured_value=0

====

- procedure-text: NCI Yeast Anticancer Drug Screen. Data for the sgs1 mgt1 strain (AID 161);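 further: 0% = growth of cultures given vehicle only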
- test-context: S. cerevisiae sgs1 mgt1 strain, at 5.0 µM (retest, dose inferred, filed as 0.5)
About 79,000 compounds went through this panel and 15% of them were active in at least one assay; those are over-represented in the sample as a whole. The source made the active and inactive calls. No stated cut-off is given here; in the data, active means growth inhibition above about 70%; inactive means the rest.
Outcomes: active, inactive

compound=O=c1c(-c2ccccc2)coc2cc(O)ccc12 qualitative_label=inactive
compound=CC1(C)CC(=O)C(CSC(=O)c2ccccc2)=C(O)C1 qualitative_label=inactive
compound=O=S(=O)(ON=C1C=CC(=NOS(=O)(=O)c2ccccc2)C=C1)c1ccccc1 qualitative_label=inactive
compound="O=C1c2ccccc2CCC1C(O)(C(F)(F)F)C(F)(F)F (configuration not stated)" qualitative_label=inactive
compound=CCCCCN(CCCCC)C(=O)CCl qualitative_label=inactive
compound="CN(C)CC1CCCCCCCCCCCCC(CN(C)C)C1=O (configuration not stated)" qualitative_label=inactive
compound=Cc1ccc(C)c(N2C(=O)C(=O)c3c(C)ccc(C)c32)c1 qualitative_label=inactive
compound=c1ccc(Cn2nnc(-c3ccccc3)c2-c2ccccc2)cc1 qualitative_label=inactive
compound=NC(=O)C(=O)N/N=C/c1ccc([N+](=O)[O-])o1 qualitative_label=inactive
compound="CNc1ccc(C(=O)NC(CCCCNC(=O)OCc2ccccc2)C(=O)OC)cc1 (configuration not stated)" qualitative_label=inactive
compound=COc1ccc2nccc(C(=O)CBr)c2c1 qualitative_label=inactive
compound=Cc1ccc(C)c(NC(=O)CCC(=O)CC(=O)c2ccncc2)c1 qualitative_label=inactive
compound="CC(C)COC(=O)C1C2C=CC(CC2)C1C(=O)OCC(C)C (configuration not stated)" qualitative_label=inactive
compound="O=P(OCCCl)(OCCCl)C(Nc1cccc2ccccc12)c1ccccc1 (configuration not stated)" qualitative_label=inactive
compound="CC1([N+](=O)[O-])C(=O)C2(N3CCOCC3)CCCC2C1c1ccccc1 (configuration not stated)" qualitative_label=inactive
compound=CCN(CC)C(=S)N/N=C/c1cc(OC)ccc1O qualitative_label=inactive
compound="CCC1=C(c2ccccc2)C(O)(c2ccccc2)C(CC)C1=O (configuration not stated)" qualitative_label=inactive
compound=Cc1cc(NC(=S)SCc2ccc(Cl)cc2)c([N+](=O)[O-])cc1C qualitative_label=active
compound=N#CC(Br)(C#N)Cc1ccccc1 qualitative_label=inactive
compound=Oc1ccc(N=Nc2ccccc2)cc1 qualitative_label=inactive
compound="C[N+]1(C)CCCC(OCCCCCCCCCCCCCCOC2CCC[N+](C)(C)C2)C1 (configuration not stated)" qualitative_label=inactive
compound=CCC[CH2][Sn]([CH2]CCC)([O]C(=O)c1cc(F)ccc1F)[O][Sn]([CH2]CCC)([CH2]CCC)[O]C(=O)c1cc(F)ccc1F qualitative_label=active
compound=C[C@H](CCC1=NCCN1)[C@H]1CC[C@H]2[C@@H]3[C@H](O)C[C@@H]4C[C@H](O)CC[C@]4(C)[C@H]3CC[C@]12C qualitative_label=inactive
compound=Cc1ccc2[nH]c3c(c2c1)[n+]([O-])c1ccccc1[n+]3[O-] qualitative_label=inactive
compound=O=S(=O)(O)c1ccc(N=Nc2ccc3c(S(=O)(=O)O)cccc3c2O)c2ccccc12 qualitative_label=inactive
compound=Cc1c[nH]c(C(=O)O)c1-c1ccc2c(-c3ccccc3)nc3ccccc3n12 qualitative_label=inactive
compound=CCOC(=O)/C(=C\c1cccc([N+](=O)[O-])c1)C(C)=O qualitative_label=inactive
compound=COC(=O)c1ccc(OCCC(=O)CCl)cc1 qualitative_label=inactive
compound=CC(C)n1nnc2ccccc2c1=Nc1ccccc1 qualitative_label=inactive
compound=COc1cccc2c1C(=O)c1c(O)c(CCl)cc(O)c1C2=O qualitative_label=inactive
compound="CC[C@@]1(O)C[C@H](OC2CC(N(C)C)C(OC3CC(O)C(OC4CCC(=O)C(C)O4)C(C)O3)C(C)O2)c2c(cc3c(c2O)C(=O)c2c(O)cccc2C3=O)[C@H]1C(=O)OC (some centres not stated)" qualitative_label=active
compound=CC(=O)N(C)c1ccc2c(c1)Cc1ccccc1-2 qualitative_label=inactive
compound=CN1C(C)(C)CC(O)(C#N)CC1(C)C qualitative_label=inactive
compound=O=CNc1ccc(Oc2ccc(NC=O)cc2)cc1 qualitative_label=inactive
compound=O=C1OC(c2ccccc2)=N/C1=C\c1ccc(Oc2ccc(Cl)c(Cl)c2)cc1 qualitative_label=inactive
compound="CCOC(=O)CN1CCC(C(=O)CC2(O)C3(Cl)C4(Cl)C5(Cl)C(Cl)(Cl)C6(Cl)C4(Cl)C2(Cl)C6(Cl)C53Cl)CC1 (configuration not stated)" qualitative_label=inactive
compound=O=S(=O)(SCc1ccccc1)C(c1ccccc1)c1ccccc1 qualitative_label=inactive
compound="O=C(CC(c1ccccc1)N1CCCCC1)OC1c2ccccc2-c2ccccc21 (configuration not stated)" qualitative_label=inactive
compound=NNc1ncc2c(n1)-c1ccccc1OC2 qualitative_label=inactive
compound=CS(=O)(=O)N\N=C1/C=C\C(=N/NS(C)(=O)=O)CCc2ccc(cc2)CC1 qualitative_label=inactive
compound=CC(=O)N(C)c1ccc(/C=C2\C=Cc3ccccc32)cc1 qualitative_label=inactive
compound=Clc1nssc1=Nc1nonc1-c1ccccc1 qualitative_label=active

====

The reader will find reported growth inhibition values listed item by item below.
- procedure-text: NCI Yeast Anticancer Drug Screen. Data for the bub3 strain (AID 167)
- test-context: S. cerevisiae bub3 mutant strain, at 50.0 µM, stronger effect = higher value
Compounds without any hit were thinned out: in the full panel of roughly 79,000, 15% have a hit.
observed-property: growth inhibition (%)

compound=COc1ccc(/C=C/C(C(=O)O)C(=O)O)cc1 observed_property="growth inhibition" readout_unit=% measured_value=82.5
compound=CSc1nc2ccccc2s1 observed_property="growth inhibition" readout_unit=% measured_value=-8.3
compound=CN(C)CC/C(=N\Nc1ccc(Cl)cc1Cl)c1ccccc1 observed_property="growth inhibition" readout_unit=% measured_value=99.5
compound="CC(C)c1ccc2c(c1)CCC1C(C)(C(=O)O)CCCC21C (stereo not drawn)" observed_property="growth inhibition" readout_unit=% measured_value=97.8
compound="COC(=O)C1(C)CCCC2(C)C3CC(=O)C(C(C)C)=CC3(O)CCC12 (stereo not drawn)" observed_property="growth inhibition" readout_unit=% measured_value=0.8
compound=CSC(=S)N/N=C/c1cccc(C)n1 observed_property="growth inhibition" readout_unit=% measured_value=86.8
compound=N#[N+]c1c([O-])ccc2nc3ccccc3nc12 observed_property="growth inhibition" readout_unit=% measured_value=-14.9
compound=COc1ccc(/C=N/N=c2\[nH][nH]/c(=N\N=C\c3ccc(OC)c4ccccc34)c3ccccc23)c2ccccc12 observed_property="growth inhibition" readout_unit=% measured_value=33.4
compound=Cc1ccc(SSCCCS(=O)O)cc1 observed_property="growth inhibition" readout_unit=% measured_value=66.3
compound="COc1cc(OC)cc(C2SCC(=O)N2c2nncs2)c1 (stereo not drawn)" observed_property="growth inhibition" readout_unit=% measured_value=98.6
compound=S=c1[nH]c2cc(Cl)ccc2s1.[Zn+2] observed_property="growth inhibition" readout_unit=% measured_value=97
compound=S=C(NN1CCOCC1)SSC(=S)NN1CCOCC1 observed_property="growth inhibition" readout_unit=% measured_value=99.8
compound=COc1ccc2c(c1)O[C@H]1c3ccc(O)cc3OC[C@@H]21 observed_property="growth inhibition" readout_unit=% measured_value=74.2

The values you see were collected from PubChem BioAssay (NCI).
